target: tRNA threonylcarbamoyladenosine biosynthesis protein TsaE (Escherichia coli (strain K12)); assay: qHTS Assay for Inhibitors of YjeE; conditions: purified YjeE enzyme, qHTS inhibition assay
In all, about 71,000 compounds went through this assay and about 35 (0.05%) were called active. Not all results are given here.
assay endpoint: outcome

C=CCN1C(=O)C(O)(CC(=O)c2ccc(Cl)cc2)c2ccccc21 (stereo not given); inactive
O=C(c1cnccn1)N1CCC[C@@]2(CCN(Cc3ccncc3)C2)C1; inactive
Cc1ccc(NC(=O)N2CCC(C(=O)NCc3ccc(F)cc3)CC2)cc1; inactive
C[C@@H](Nc1nc(-c2ccccc2)nc2c1oc1ccccc12)C(=O)O; inactive
O=C1CC(N2CCN(C(c3ccccc3)c3ccccc3)CC2)C(=O)N1 (stereo not given); inactive
O=C(O)[C@@H](S)[C@H](S)C(=O)O; inactive
C[N+](C)(CCCCCC[N+](C)(C)CCCN1C(=O)c2cccc3cccc(c23)C1=O)CCCN1C(=O)c2cccc3cccc(c23)C1=O; inactive
CCCC(=O)N1c2ccc(-c3csc(N)n3)cc2CC1C (stereo not given); inactive
Cc1ccc(C)c(N2CCN(C(=O)CCc3nc4ccccc4[nH]3)CC2)c1; inactive
O=C1C(c2[nH]c3ccccc3c2O)=Nc2ccccc21; inactive
